Please go through the items and note down their Mean % WT Binding.
Target: human CD33 T42K (human, UniProt P20138 18-364)
Sequence (P20138 18-364 T42K limits assumed): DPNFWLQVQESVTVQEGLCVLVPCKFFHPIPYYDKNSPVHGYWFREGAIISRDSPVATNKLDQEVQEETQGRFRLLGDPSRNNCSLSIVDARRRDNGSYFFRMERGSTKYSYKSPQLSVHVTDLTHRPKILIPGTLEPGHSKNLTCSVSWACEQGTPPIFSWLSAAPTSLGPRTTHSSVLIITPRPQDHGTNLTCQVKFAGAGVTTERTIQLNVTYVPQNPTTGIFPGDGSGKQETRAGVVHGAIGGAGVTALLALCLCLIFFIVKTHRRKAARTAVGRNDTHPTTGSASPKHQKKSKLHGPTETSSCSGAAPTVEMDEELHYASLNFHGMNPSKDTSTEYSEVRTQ
Assay: flow cytometry, mutant on cells, IgG
Give bare numbers, in % WT binding.

Refmab #1 (antibody, human IgG1, V domains shown, Tested in IgG format; human IgG1 (Absolute Antibody hP67.6, Cat. No. Ab00283-10.0); also called hP67.6) VH: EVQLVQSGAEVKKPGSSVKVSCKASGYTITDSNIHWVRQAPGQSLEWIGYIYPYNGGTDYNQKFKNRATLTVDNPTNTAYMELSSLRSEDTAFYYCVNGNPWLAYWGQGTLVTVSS VL: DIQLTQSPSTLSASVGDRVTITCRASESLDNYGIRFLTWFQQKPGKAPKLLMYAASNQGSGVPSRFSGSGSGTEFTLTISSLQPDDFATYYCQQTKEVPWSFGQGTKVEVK : 106
Refmab #2 (antibody, human IgG1, V domains shown, Tested in IgG format; human IgG1 Fc silent (PG-LALA)) VH: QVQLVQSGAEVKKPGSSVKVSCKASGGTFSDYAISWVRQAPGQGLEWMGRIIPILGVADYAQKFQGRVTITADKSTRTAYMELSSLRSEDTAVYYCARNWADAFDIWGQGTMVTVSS VL: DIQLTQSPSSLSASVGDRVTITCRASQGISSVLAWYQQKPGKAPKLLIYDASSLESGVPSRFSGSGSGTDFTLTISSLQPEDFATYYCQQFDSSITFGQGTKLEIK : 95.5

Mean % WT Binding for Refmab #3 (antibody, human IgG1, V domains shown, Tested in IgG format; human IgG1 Fc silent (PG-LALA)) VH: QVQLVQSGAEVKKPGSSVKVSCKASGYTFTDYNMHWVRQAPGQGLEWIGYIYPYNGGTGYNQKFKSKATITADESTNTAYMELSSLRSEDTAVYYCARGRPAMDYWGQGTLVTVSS VL: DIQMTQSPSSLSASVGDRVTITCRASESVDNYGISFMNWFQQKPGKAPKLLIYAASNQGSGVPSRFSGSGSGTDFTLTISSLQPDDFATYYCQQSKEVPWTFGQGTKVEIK ?
103
